These measurements were taken from patent US5985836A.

- System: A1PI (Homo sapiens, UniProt P01009)
- Construct: Human plasma is currently the only approved source of therapeutic AlPI
- Sequence (P01009 25-418): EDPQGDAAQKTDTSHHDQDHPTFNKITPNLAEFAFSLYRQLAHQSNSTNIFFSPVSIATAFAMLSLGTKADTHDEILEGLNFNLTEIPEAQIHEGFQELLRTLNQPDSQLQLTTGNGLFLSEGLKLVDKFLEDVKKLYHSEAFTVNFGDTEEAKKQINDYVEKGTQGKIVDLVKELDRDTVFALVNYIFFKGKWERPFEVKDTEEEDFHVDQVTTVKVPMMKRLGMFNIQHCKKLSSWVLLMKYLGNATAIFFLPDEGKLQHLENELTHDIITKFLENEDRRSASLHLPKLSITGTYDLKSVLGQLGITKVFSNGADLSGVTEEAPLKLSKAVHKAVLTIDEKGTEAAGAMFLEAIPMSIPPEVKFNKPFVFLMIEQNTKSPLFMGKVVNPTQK
- Protocol Notes: Capture and elution of active A1PI with 2M urea buffer (elastase inhibition activity assay and immunonephelometry)
- Type: binding
- Applied Conditions: 1 mg A1PI, 4° C.; eluted with 2M urea, pH 6; immunonephelometry
Ends that are not written are not given here.
Entries and their Mass A1PI in Urea Eluate (mg), Nephelometry
Readout Name: Mass A1PI in Urea Eluate (mg), Nephelometry

substance="RVLFIH: reversed sequence of VIFLVR with C-terminal His" data_value=0.71
substance=RAFWYI data_value=0.71
substance=LIVHRW data_value=0.85
substance=RYRIFI data_value=0.79
substance=RFIYYT data_value=0.80
substance=VIFLVR data_value=0.45
substance=PYWIVR data_value=0.49
